Biological target: FLT3 D835Y (Homo sapiens, UniProt P36888, D835Y)
Sequence (P36888 27-993 D835Y): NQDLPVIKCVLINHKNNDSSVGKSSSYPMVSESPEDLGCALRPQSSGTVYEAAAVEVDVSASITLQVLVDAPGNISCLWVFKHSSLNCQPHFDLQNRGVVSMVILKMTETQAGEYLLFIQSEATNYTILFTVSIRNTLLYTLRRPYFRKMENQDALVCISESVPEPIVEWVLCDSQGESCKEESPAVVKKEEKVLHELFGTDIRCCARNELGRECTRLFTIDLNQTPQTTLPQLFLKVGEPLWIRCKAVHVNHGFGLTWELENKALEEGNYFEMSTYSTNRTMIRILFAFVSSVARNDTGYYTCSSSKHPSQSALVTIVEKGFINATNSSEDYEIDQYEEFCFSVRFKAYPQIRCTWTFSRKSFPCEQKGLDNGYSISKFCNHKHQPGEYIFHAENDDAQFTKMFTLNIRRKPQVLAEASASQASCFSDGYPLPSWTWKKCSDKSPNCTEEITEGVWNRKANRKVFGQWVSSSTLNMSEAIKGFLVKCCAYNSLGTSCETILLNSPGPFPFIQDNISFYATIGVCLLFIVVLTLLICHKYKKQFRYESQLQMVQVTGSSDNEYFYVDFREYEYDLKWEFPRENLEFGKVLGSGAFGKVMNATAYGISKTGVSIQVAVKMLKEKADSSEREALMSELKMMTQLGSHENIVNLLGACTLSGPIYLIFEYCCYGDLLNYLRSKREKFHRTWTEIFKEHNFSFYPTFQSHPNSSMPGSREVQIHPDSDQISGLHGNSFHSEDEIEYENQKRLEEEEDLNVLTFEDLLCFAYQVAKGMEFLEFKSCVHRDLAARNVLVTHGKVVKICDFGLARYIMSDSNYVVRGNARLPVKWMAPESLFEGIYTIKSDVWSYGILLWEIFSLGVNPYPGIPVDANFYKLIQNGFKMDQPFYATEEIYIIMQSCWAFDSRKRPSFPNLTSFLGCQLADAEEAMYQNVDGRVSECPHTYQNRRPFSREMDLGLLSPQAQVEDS
Assay: DiscoverX KINOMEscan competition binding, FLT3 D835Y
pKd: −log10 of the molar value.
Reported pKd values for a set of molecules
measuredQuantity: pKd

1. CC1(c2cn3c(-c4cccc(N[C@H]5CNCC56CC6)n4)cnc3cn2)CC1 | 10.44
2. F[C@H]1CNC[C@@H]1Nc1cccc(-c2cnc3cnc(C4CC4)cn23)n1 | 10.36
3. FC(F)c1cn2c(-c3cccc(N[C@H]4CNC[C@@H]4F)n3)cnc2cn1 | 10.28

---

The reader will find reported pIC50 values listed item by item below.
Biological target: IRAK1 (Homo sapiens, UniProt P51617)
Sequence (P51617 whole entry): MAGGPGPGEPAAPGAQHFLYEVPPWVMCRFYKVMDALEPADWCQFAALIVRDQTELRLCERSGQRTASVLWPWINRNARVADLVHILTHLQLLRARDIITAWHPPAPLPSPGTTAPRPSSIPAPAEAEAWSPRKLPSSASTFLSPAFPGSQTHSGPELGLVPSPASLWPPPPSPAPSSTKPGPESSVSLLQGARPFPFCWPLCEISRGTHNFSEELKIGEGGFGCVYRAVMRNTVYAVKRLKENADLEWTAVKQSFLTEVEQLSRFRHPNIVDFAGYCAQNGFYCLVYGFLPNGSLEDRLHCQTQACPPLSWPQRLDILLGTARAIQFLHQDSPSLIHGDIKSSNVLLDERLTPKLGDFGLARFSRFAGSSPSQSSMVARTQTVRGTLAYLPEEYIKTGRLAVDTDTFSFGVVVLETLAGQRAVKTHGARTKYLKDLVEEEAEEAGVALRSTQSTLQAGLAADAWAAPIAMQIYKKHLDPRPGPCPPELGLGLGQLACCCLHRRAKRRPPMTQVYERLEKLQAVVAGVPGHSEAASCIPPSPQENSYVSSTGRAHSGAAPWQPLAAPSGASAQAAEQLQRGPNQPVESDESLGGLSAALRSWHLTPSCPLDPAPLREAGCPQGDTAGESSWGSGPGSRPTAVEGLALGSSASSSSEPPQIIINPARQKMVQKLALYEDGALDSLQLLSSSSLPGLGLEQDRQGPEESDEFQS
Experiment: RBC HotSpot Kinase Assay, IRAK1
Conditions: isolated kinase, 33P-ATP
pIC50: −log10 of the molar value.
measuredQuantity: pIC50

1) O=C1NCCN1c1cn2c(-c3cccc(N[C@H]4CNC[C@@H]4F)n3)cnc2cn1 [Compound 117] | 7.12
2) F[C@H]1CNC[C@@H]1Nc1cccc(-c2cnc3cnc(N4CCC(F)(F)C4)cn23)n1 [Compound 67] | 5.09
3) CC(C)Oc1cn2c(-c3cccc(N[C@H]4CNC[C@@H]4F)n3)cnc2cn1 [Compound 59] | 6.16
4) CC1(c2cn3c(-c4cccc(N[C@H]5CCNC[C@@H]5F)n4)cnc3cn2)CC1 [Compound 6] | 6.03

Origin of measurements: patent US12612410B2
